Listing of entries alongside the reported PC-3 TGI.
Tested on: Prostate (PC-3)
Test: Anticancer activity in vitro (Table 3), PC-3
Format: cell-based, human
Settings: 48 h
Enter your answer as a number in µM; do not include the unit.

For this molecule ( `COc1c(O)c(CN2CCN(C)CC2)c2oc(-c3ccccc3)cc(=O)c2c1O` ), measured PC-3 TGI is 76.1

So, O=c1cc(-c2ccccc2)oc2c(CN3CCC(O)CC3)c(O)c(O)c(O)c12 [Hydroxypiperidin Baicalein] ? Its PC-3 TGI was 16.4

Briefly, PC-3 TGI measured for O=c1cc(-c2ccccc2)oc2c(CN3CCN(CCO)CC3)c(O)c(O)c(O)c12 [Hydroxyethylpiperazine Baicalein] : 15.4

The molecule identified as `CN1CCN(Cc2c(O)c(O)c(O)c3c(=O)cc(-c4ccccc4)oc23)CC1` registered its PC-3 TGI at 19.8

These measurements were taken from patent US8377895B2.
